Ref: ChEMBL document CHEMBL5212743

Target: Bromodomain-containing protein 9 (Homo sapiens)
Sequence (Q9H8M2 whole entry): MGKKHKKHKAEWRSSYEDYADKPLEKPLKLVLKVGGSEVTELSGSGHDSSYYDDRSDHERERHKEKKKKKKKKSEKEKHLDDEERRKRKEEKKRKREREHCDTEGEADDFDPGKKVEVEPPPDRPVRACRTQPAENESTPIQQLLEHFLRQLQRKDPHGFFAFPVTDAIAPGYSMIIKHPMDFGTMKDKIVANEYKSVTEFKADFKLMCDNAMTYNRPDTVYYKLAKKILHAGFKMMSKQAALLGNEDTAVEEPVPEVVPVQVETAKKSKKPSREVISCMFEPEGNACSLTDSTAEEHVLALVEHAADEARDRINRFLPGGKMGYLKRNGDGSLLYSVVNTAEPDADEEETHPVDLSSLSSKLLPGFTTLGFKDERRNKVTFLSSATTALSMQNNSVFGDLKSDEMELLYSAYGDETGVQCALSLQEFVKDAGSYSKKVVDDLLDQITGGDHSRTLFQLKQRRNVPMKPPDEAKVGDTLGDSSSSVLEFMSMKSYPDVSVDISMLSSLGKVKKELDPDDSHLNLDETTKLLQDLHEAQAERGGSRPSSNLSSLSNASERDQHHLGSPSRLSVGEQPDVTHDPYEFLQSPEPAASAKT
Assay: Selectivity interaction (ITC) EUB0000222b BRD9
RECORDED METRIC: Kd (µM)
Answers are plain numbers, in µM.

[Q] Any idea what Kd was measured for CCCOc1ccn2c(C(C)=O)cc(-c3ccccc3S(C)(=O)=O)c2c1 ?
[A] 1.1
